- ASSAY NOTES: AUC(0 to t) in ICR mouse at 10 mg/kg, po measured at 0.5 to 24 hrs by LC-MS/MS analysis
- Type: ADME, organism-based
- Parameters: time upper 24 hrs, time lower 0.5 hrs, dose 10 mg/kg, route po
- CONDITION DESCRIPTION: in vivo
Form field: AUC(0-t) (one value per entry).
ATTRIBUTE MEASURED: AUC(0-t) (ng·h/mL)

>>> print(df.to_string())
                              record_smiles  readout_unit  observed_value
0  Cc1cc(F)ccc1Oc1cc(C(F)(F)F)ccc1C(=O)Nc1ccn(COP(=O)(O)O)c(=O)c1       ng·h/mL            5860
1  Cc1nc(N2CCCC(F)(F)CC2)c(C(=O)Nc2ccc3c(c2)C(=O)NC3)cc1Cl       ng·h/mL            3680

====

- EXPERIMENTAL TARGET: Sodium channel protein type 10 subunit alpha (Homo sapiens, UniProt Q9Y5Y9)
- Sequence (Q9Y5Y9 whole entry, looked up): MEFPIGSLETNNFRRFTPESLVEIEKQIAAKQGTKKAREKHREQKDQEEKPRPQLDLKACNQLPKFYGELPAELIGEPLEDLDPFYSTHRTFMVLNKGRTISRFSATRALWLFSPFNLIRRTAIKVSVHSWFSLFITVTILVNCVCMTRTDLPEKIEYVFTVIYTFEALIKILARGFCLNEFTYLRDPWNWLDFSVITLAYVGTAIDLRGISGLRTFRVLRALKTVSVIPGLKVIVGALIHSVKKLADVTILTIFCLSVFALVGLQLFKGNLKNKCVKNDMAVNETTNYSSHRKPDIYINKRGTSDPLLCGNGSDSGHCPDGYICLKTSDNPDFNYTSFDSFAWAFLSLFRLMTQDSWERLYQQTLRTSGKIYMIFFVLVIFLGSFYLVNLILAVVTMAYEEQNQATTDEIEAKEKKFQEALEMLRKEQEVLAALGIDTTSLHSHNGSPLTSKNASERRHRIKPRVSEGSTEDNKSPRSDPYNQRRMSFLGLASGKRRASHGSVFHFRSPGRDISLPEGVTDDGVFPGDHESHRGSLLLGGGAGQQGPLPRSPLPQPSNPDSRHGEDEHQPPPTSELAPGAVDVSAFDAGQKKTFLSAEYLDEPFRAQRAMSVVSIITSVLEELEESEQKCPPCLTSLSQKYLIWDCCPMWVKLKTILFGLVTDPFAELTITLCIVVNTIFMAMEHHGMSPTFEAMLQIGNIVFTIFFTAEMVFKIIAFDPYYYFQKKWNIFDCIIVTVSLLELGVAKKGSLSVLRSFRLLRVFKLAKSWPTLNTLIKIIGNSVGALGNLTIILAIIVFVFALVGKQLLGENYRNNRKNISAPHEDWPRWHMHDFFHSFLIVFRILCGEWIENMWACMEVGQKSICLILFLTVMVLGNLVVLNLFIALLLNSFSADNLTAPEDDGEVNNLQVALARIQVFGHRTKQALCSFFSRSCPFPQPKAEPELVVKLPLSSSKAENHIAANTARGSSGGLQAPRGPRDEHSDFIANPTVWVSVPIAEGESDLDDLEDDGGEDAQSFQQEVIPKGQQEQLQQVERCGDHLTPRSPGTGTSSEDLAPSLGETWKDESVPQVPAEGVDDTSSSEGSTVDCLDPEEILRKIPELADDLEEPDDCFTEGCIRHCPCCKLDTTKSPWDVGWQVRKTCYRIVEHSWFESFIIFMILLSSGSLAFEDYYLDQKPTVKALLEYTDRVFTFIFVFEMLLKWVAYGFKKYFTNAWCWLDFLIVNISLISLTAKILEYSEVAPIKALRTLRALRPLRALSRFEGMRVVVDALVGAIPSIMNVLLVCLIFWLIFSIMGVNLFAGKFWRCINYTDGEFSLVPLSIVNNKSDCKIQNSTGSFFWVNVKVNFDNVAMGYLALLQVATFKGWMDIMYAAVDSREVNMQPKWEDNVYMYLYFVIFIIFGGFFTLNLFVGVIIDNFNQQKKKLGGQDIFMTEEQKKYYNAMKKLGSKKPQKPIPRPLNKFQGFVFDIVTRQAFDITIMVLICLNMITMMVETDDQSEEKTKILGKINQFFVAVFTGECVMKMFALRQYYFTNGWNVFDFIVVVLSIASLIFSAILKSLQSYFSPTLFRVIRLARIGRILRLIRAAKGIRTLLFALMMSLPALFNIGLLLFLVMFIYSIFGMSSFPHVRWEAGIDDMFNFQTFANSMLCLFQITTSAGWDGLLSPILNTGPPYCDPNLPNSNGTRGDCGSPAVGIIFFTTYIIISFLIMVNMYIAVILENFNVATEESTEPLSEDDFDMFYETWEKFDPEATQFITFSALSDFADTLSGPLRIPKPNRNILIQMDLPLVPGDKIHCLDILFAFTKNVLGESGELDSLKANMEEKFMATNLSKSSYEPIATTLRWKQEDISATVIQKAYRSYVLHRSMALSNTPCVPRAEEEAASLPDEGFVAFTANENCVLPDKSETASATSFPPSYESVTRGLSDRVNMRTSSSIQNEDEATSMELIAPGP
- ASSAY NOTES: Inhibition of human Nav1.8 expressed in HEK293 cells assessed as ratio of peak current magnitude after compound addition to control at 100 nM incubated at -80 mV holding potential by whole-cell patch-clamp technique
- Format: cell-based
Mark TRUE for Ratio under 0.8, FALSE if at or over.

                              record_smiles  group
0  Cc1nc(N2CCCC(F)(F)CC2)c(C(=O)Nc2ccc3[nH][nH]c(=O)c3c2)cc1Cl   TRUE
1  Cc1nc(N2CCCC(F)(F)CC2)c(C(=O)Nc2ccc3nc[nH]c(=O)c3c2)cc1Cl   TRUE
2  Cc1nc(N2CCC(F)(F)CC2)c(C(=O)Nc2ccc3c(c2)C(=O)NC3)cc1Cl  FALSE
3  CC(C)c1nc(N2CCCC(F)(F)CC2)c(C(=O)Nc2ccc3c(c2)C(=O)NC3)cc1Cl  FALSE
4  Cc1nc(N2CCCC(F)(F)CC2)c(C(=O)Nc2ccc3c(c2)C(=O)NC3=O)cc1Cl   TRUE
5  CN(C)c1nc(N2CCCC(F)(F)CC2)c(C(=O)Nc2ccc3c(c2)C(=O)NC3)cc1Cl   TRUE
